Test system: blackgrass (Alopecurus myosuroides)
Assay: Test B pre-/postemergence plant response
Format: in vivo
Conditions: Preemergence, 16 g ai/ha; scale 0 to 100 (0 no effect, 100 complete control)
Quantity name: Plant response rating, Blackgrass

{"Line notation": "COC(=O)Oc1cnn(C)c(=O)c1-n1nc(-c2ccc(Cl)cc2)cc1C", "Quantity name": "Plant response rating, Blackgrass", "Reported measurement": 100}
{"Line notation": "CCc1cc(-c2ccc(C(F)(F)F)cc2)nn1-c1c(OS(C)(=O)=O)cnn(C)c1=O", "Quantity name": "Plant response rating, Blackgrass", "Reported measurement": 100}
{"Line notation": "Cc1cc(-c2ccc(Cl)cc2)nn1-c1c(OS(=O)(=O)c2ccccc2[N+](=O)[O-])cnn(C)c1=O", "Quantity name": "Plant response rating, Blackgrass", "Reported measurement": 98}
{"Line notation": "CCc1cc(-c2ccc(Cl)cc2)nn1-c1c(OC(=O)OC(C)C)cnn(C)c1=O", "Quantity name": "Plant response rating, Blackgrass", "Reported measurement": 100}
{"Line notation": "CCc1cc(-c2ccc(C(F)(F)F)cc2)nn1-c1c(O)cnn(CC)c1=O", "Quantity name": "Plant response rating, Blackgrass", "Reported measurement": 100}
{"Line notation": "Cc1cc(-c2ccc(Cl)cc2)nn1-c1c(OS(C)(=O)=O)cnn(C)c1=O", "Quantity name": "Plant response rating, Blackgrass", "Reported measurement": 80}
{"Line notation": "CCc1cc(-c2ccc(Cl)cc2)nn1-c1c(OC(=O)C(C)(C)C)cnn(C)c1=O", "Quantity name": "Plant response rating, Blackgrass", "Reported measurement": 95}

###

System: goosegrass (Eleusine indica)
Assay: Test B pre-/postemergence plant response
Type: in vivo
Details: 8 g ai/ha, postemergence; 0-100 scale
Quantity name: Goosegrass plant response rating

{"Line notation": "Cc1cc(-c2ccc(Br)cc2)nn1-c1c(OC(=O)C2CC2)cnn(C(=O)C2CC2)c1=O", "Quantity name": "Goosegrass plant response rating", "Reported measurement": 20}
{"Line notation": "Cc1cc(-c2ccc(Cl)cc2)nn1-c1c(OC(=O)C(C)C)cnn(C)c1=O", "Quantity name": "Goosegrass plant response rating", "Reported measurement": 50}
{"Line notation": "Cc1cc(-c2ccc(Cl)cc2)nn1-c1c(OS(C)(=O)=O)cnn(C)c1=O", "Quantity name": "Goosegrass plant response rating", "Reported measurement": 0}
{"Line notation": "COCc1cc(-c2ccc(Br)cc2)nn1-c1c(O)cnn(C)c1=O", "Quantity name": "Goosegrass plant response rating", "Reported measurement": 0}
{"Line notation": "CCc1cc(-c2ccc(F)cc2)nn1-c1c(O)cnn(C)c1=O", "Quantity name": "Goosegrass plant response rating", "Reported measurement": 0}

###

Tested on: bermudagrass (Cynodon dactylon)
Assay: Test B pre-/postemergence plant response
Format: in vivo
Conditions: Postemergence, 31 g ai/ha; scale 0 to 100, 0 no effect, 100 complete control
Let's look at some compounds and their measured Plant response rating, Bermudagrass.

{"Compound": "CCc1cc(-c2ccc(F)cc2)nn1-c1c(O)cnn(C)c1=O [Compound 25]", "Plant response rating, Bermudagrass": 60}
{"Compound": "Cc1cc(-c2ccc(Br)cc2)nn1-c1c(O)cnn(C)c1=O [Compound 4]", "Plant response rating, Bermudagrass": 100}
{"Compound": "COC(=O)Oc1cnn(C)c(=O)c1-n1nc(-c2ccc(Cl)cc2)cc1C [Compound 33]", "Plant response rating, Bermudagrass": 100}
{"Compound": "Cc1cc(-c2ccc(Cl)cc2)nn1-c1c(OS(C)(=O)=O)cnn(C)c1=O [Compound 36]", "Plant response rating, Bermudagrass": 100}

###

Test system: Italian ryegrass (Lolium multiflorum)
Assay: Test B pre-/postemergence plant response
Type: in vivo
Details: Preemergence; 8 g ai/ha; scale 0 to 100
Quantity name: Ryegrass, Italian plant response rating

{"Line notation": "CCc1cc(-c2ccc(Cl)cc2)nn1-c1c(OC(=O)OC(C)C)cnn(C)c1=O", "Reported measurement": 85}
{"Line notation": "Cn1ncc(O)c(-c2nn(-c3ccc(Cl)cc3)cc2Br)c1=O", "Reported measurement": 50}
{"Line notation": "CCc1cc(-c2ccc(C(F)(F)F)cc2)nn1-c1c(O)cnn(CC)c1=O", "Reported measurement": 100}

###

Tested on: annual bluegrass (Poa annua)
Assay: Test C pre-/postemergence plant response
Format: in vivo
Details: Preemergence, 31 g ai/ha; scale 0 to 100 (0 no effect, 100 complete control)
Form field: Plant response rating, Bluegrass (one value per entry).
Quantity name: Plant response rating, Bluegrass

{"Line notation": "Cc1cc(-c2ccc(Cl)cc2)nn1-c1c(OS(=O)(=O)c2ccccc2[N+](=O)[O-])cnn(C)c1=O", "Quantity name": "Plant response rating, Bluegrass", "Reported measurement": 0}
{"Line notation": "CCc1c(C)c(-c2ccc(Cl)cc2)nn1-c1c(O)cnn(C)c1=O", "Quantity name": "Plant response rating, Bluegrass", "Reported measurement": 0}
{"Line notation": "Cc1cc(-c2ccc(Cl)cc2)nn1-c1c(OC(=O)c2ccccc2)cnn(C)c1=O", "Quantity name": "Plant response rating, Bluegrass", "Reported measurement": 0}
{"Line notation": "CCc1cc(-c2ccc(F)cc2)nn1-c1c(O)cnn(C)c1=O", "Quantity name": "Plant response rating, Bluegrass", "Reported measurement": 40}

###

Tested on: green foxtail (Setaria viridis)
Experiment: Test C pre-/postemergence plant response
Format: in vivo
Conditions: Postemergence, 8 g ai/ha; scale 0 to 100, 0 no effect, 100 complete control

{"Line notation": "CCc1cc(-c2ccc(Cl)c(Cl)c2)nn1-c1c(O)cnn(C)c1=O", "Plant response rating, Foxtail, Green": 0}
{"Line notation": "CCc1cc(-c2ccc(C(F)(F)F)cc2)nn1-c1c(O)cnn(C)c1=O", "Plant response rating, Foxtail, Green": 95}
{"Line notation": "Cc1cc(-c2ccc(Cl)cc2)nn1-c1c(OC(=O)OCC(C)C)cnn(C)c1=O", "Plant response rating, Foxtail, Green": 90}
{"Line notation": "CCc1cc(-c2ccc(C(F)(F)F)cc2)nn1-c1c(OS(C)(=O)=O)cnn(C)c1=O", "Plant response rating, Foxtail, Green": 95}

###

# Bromegrass, Downy plant response rating listing for each entry below
Test system: downy bromegrass (Bromus tectorum)
Experiment: Test B pre-/postemergence plant response
Type: in vivo
Details: 8 g ai/ha, postemergence; 0-100 scale
Text: […] Plant species in the flooded paddy test consisted of rice (Oryza sativa), umbrella sedge (Cyperus difformis), ducksalad (Heteranthera limosa) and barnyardgrass (Echinochloa crus-galli) grown to the 2-leaf stage for testing. […] Treated plants and controls were maintained in a greenhouse for 13 to 15 days, after which time all species were compared to controls and visually evaluated. […]
Quantity name: Bromegrass, Downy plant response rating

{"Line notation": "CCc1cc(-c2ccc(C(F)(F)F)cc2)nn1-c1c(OS(C)(=O)=O)cnn(C)c1=O", "Reported measurement": 10}
{"Line notation": "CCc1cc(-c2ccc(Br)cc2)nn1-c1c(O)cnn(C)c1=O", "Reported measurement": 80}
{"Line notation": "CCc1cc(-c2ccc(C(F)(F)F)cc2)nn1-c1c(O)cnn(CC)c1=O", "Reported measurement": 55}
{"Line notation": "Cc1nn(C)c(=O)c(-n2nc(-c3ccc(Br)cc3)cc2C)c1O", "Reported measurement": 0}
{"Line notation": "COC(=O)Oc1cnn(C)c(=O)c1-n1nc(-c2ccc(Cl)cc2)cc1C", "Reported measurement": 5}
{"Line notation": "CCc1c(C)c(-c2ccc(Cl)cc2)nn1-c1c(O)cnn(C)c1=O", "Reported measurement": 0}

###

Test system: downy bromegrass (Bromus tectorum)
Test: Test B pre-/postemergence plant response
Type: in vivo
Settings: Preemergence, 16 g ai/ha; scale 0 to 100 (0 no effect, 100 complete control)
From the text: […] Plant species in the flooded paddy test consisted of rice (Oryza sativa), umbrella sedge (Cyperus difformis), ducksalad (Heteranthera limosa) and barnyardgrass (Echinochloa crus-galli) grown to the 2-leaf stage for testing. […] Treated plants and controls were maintained in a greenhouse for 13 to 15 days, after which time all species were compared to controls and visually evaluated. […]

{"Compound": "Cc1cc(-c2ccc(Cl)cc2)nn1-c1c(OS(=O)(=O)c2ccccc2[N+](=O)[O-])cnn(C)c1=O [Compound 51]", "Target or test system": "downy bromegrass (Bromus tectorum)", "Plant response rating, Bromegrass, Downy": 0}
{"Compound": "Cc1cc(-c2ccc(Cl)cc2)nn1-c1c(OC(=O)OCC(C)C)cnn(C)c1=O [Compound 57]", "Target or test system": "downy bromegrass (Bromus tectorum)", "Plant response rating, Bromegrass, Downy": 0}
{"Compound": "Cc1cc(-c2ccc(Cl)cc2)nn1-c1c(OC(=O)C(C)C)cnn(C)c1=O [Compound 34]", "Target or test system": "downy bromegrass (Bromus tectorum)", "Plant response rating, Bromegrass, Downy": 55}
{"Compound": "Cc1cc(-c2ccc(Cl)cc2)nn1-c1c(OC(=O)c2ccccc2)cnn(C)c1=O [Compound 48]", "Target or test system": "downy bromegrass (Bromus tectorum)", "Plant response rating, Bromegrass, Downy": 0}
{"Compound": "CCc1cc(-c2ccc(Br)cc2)nn1-c1c(O)cnn(C)c1=O [Compound 61]", "Target or test system": "downy bromegrass (Bromus tectorum)", "Plant response rating, Bromegrass, Downy": 90}
{"Compound": "CCc1cc(-c2ccc(C(F)(F)F)cc2)nn1-c1c(OS(C)(=O)=O)cnn(C)c1=O [Compound 19]", "Target or test system": "downy bromegrass (Bromus tectorum)", "Plant response rating, Bromegrass, Downy": 0}
